Parameter: inhibition at 0.01 µM. Scope: all listed entries.
experimentalTarget: COX-2 (Homo sapiens, UniProt P35354)
Construct: purchased BioVision (Milpitas, CA, USA) K547-100
Sequence (P35354 18-604): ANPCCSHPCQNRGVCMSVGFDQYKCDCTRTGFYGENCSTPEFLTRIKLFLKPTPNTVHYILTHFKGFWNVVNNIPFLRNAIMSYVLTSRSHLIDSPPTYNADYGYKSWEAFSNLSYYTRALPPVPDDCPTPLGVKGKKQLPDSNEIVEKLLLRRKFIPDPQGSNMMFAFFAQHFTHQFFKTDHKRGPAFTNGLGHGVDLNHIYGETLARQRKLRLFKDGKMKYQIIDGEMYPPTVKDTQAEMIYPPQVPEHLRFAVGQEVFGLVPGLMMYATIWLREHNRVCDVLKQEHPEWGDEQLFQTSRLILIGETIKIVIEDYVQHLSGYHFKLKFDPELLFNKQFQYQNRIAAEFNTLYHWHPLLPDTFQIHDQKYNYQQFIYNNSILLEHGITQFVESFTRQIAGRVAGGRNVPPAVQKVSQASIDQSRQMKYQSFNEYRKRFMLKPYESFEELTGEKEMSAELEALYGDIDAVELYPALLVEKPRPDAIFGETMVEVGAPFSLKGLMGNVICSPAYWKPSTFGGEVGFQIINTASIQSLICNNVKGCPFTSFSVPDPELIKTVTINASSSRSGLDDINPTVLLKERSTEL
assay: Fluorimetric COX-2 inhibition screening kit (BioVision)
Format: biochemical
cond: 10^−8 M
quantityMeasured: inhibition at 0.01 µM (%)

[[record]]
compound = "CCN(CC)c1ccc(-c2nc3ccccc3n2CCN2CCOCC2)cc1 [Compound 2h]"
displayunit = "%"
recordednumber = 28.4

[[record]]
compound = "c1ccc(COc2ccc(-c3nc4ccccc4n3CCN3CCOCC3)cc2)cc1 [Compound 2f]"
displayunit = "%"
recordednumber = 31.5

[[record]]
compound = "CCOc1ccc(-c2nc3ccccc3n2CCN2CCOCC2)cc1 [Compound 2j]"
displayunit = "%"
recordednumber = 26.9

[[record]]
compound = "FC(F)(F)Oc1ccc(-c2nc3ccccc3n2CCN2CCOCC2)cc1 [Compound 2m]"
displayunit = "%"
recordednumber = 28.7

[[record]]
compound = "Cc1ccc(-c2nc3ccccc3n2CCN2CCOCC2)cc1 [Compound 2a]"
displayunit = "%"
recordednumber = 36.2

[[record]]
compound = "COc1ccc(-c2nc3ccccc3n2CCN2CCOCC2)cc1 [Compound 2b]"
displayunit = "%"
recordednumber = 27.4


The measured values listed here are drawn from paper PMC6152416.
